System: Human autotaxin enzyme (Homo sapiens) | Read-out: IC50
Result type: IC50

# Compound, Result type, Result
rows = [
    ("CCCCC1CN(Cc2ccc(C#N)cc2)C(=O)c2cc(-c3ccc(Cl)cc3COC)nn21 (stereo not shown) [Compound I-0284]", "IC50", "≥ 1000 nM"),
    ("CCOC(=O)CN1CC(C)(C)n2nc(-c3ccc(Cl)cc3)cc2C1=O [Compound I-0014]", "IC50", "≥ 1000 nM"),
    ("CCCCC1CN(C2CCN(CC#N)C2=O)C(=O)c2cc(-c3ccc(Cl)cc3)nn21 (stereo not shown) [Compound I-0292]", "IC50", "10 to 100 nM"),
    ("O=C(O)c1cccc(CN2C(=O)c3cc(-c4ccc(Cl)cc4)nn3[C@H]3CCC[C@H]32)c1 [Compound I-0149]", "IC50", "100 to 1000 nM"),
    ("CCCCCC1CN(CC(=O)N2CCC(c3ccccc3)CC2)C(=O)c2cc(-c3ccc(Cl)cc3)nn21 (stereo not shown) [Compound I-0036]", "IC50", "10 to 100 nM"),
    ("C[C@H]1CN(Cc2cccc(CC(=O)O)c2)C(=O)c2cc(-c3ccc(Cl)cc3)nn21 [Compound I-0163]", "IC50", "100 to 1000 nM"),
    ("C[C@H]1CN(CC(=O)N(C)CCC#N)C(=O)c2cc(-c3ccc(C#N)cc3NC(=O)C(C)(C)C)nn21 [Compound I-0359]", "IC50", "10 to 100 nM"),
]
